Cited source: patent US20260007681A1

Each entry below lists one item and its recorded pIC50 value.
experiment.description: Cell growth assay (WST-8) (Compounds B1-B278)
Assay type: cell-based
particulars: 96 h; T47D cell line; WST-8, 4 days; read-out: Cell Growth Inhibition in T47D cell line IC50
pIC50: −log10 of the molar value.

Sample answers from the record:
- C[C@@H]1Cc2c([nH]c3ccccc23)[C@@H](c2cnc(N3CCC4(CCC(CN5CCN6c7cc8c(cc7OC[C@@H]6C5)C(=O)N(C5CCC(=O)NC5=O)C8)CC4)CC3)nc2)N1CC(C)(C)F (some centres unmarked): < 8.00
- COc1c2c(cc3c1CN(C1CCC(=O)NC1=O)C3=O)CN(CC(=O)N1CCC3(CC1)CCN(c1cc(F)c([C@@H]4c5[nH]c6ccccc6c5C[C@@H](C)N4CC(F)F)c(F)c1)CC3)C2 (some centres unmarked): 8.00 to 9.00
- C[C@@H]1Cc2c([nH]c3ccccc23)[C@@H](c2c(F)cc(NC3CN(C(=O)CN4CCN5c6cc7c(cc6OC[C@@H]5C4)C(=O)N(C4CCC(=O)NC4=O)C7)C3)cc2F)N1CC(F)(F)CO (some centres unmarked): 8.00 to 9.00
- C[C@@H]1Cc2c([nH]c3ccccc23)[C@@H](c2cnc(N3CCC4(CCC(CN5CCN6c7ccc8c(c7OC[C@H]6C5)CN(C5CCC(=O)NC5=O)C8=O)CC4)CC3)nc2)N1CC(C)(C)F (some centres unmarked): < 8.00

Which measured pIC50 value corresponds to C[C@@H]1Cc2c([nH]c3ccccc23)[C@@H](c2cnc(N3CC4(CCC(CN5CCN6c7ccc8c(c7OC[C@H]6C5)CN(C5CCC(=O)NC5=O)C8=O)CC4)C3)nc2)N1CC1(F)CC1 (some centres unmarked) ?
8.00 to 9.00

* * *

assay.system: ER in MCF-7 cells (Homo sapiens (Human), UniProt P03372)
Sequence (P03372 whole entry): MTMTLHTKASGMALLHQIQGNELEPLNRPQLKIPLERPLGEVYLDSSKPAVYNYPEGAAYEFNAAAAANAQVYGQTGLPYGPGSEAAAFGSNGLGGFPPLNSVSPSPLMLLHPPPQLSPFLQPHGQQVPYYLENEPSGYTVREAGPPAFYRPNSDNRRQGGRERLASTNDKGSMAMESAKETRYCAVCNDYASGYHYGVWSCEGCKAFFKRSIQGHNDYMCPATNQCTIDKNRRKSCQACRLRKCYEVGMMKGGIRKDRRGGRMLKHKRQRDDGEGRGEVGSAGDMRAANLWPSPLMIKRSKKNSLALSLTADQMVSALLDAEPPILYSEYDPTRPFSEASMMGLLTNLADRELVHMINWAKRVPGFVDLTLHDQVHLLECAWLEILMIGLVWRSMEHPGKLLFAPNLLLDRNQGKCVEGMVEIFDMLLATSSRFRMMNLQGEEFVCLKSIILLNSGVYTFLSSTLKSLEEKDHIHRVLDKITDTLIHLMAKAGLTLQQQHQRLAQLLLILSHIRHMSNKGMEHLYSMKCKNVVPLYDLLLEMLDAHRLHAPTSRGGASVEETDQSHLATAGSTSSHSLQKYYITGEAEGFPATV
experiment.description: In-cell western (ICW) ER degradation assay in MCF-7 cells (Compounds A1-A70)
Format: cell-based
particulars: ER degradation, MCF-7 cells, 16 hrs treatment, 0.02 to 300 nM; read-out: MCF7 ICW DC50
Where a name gives a salt, the structure may show the parent alone.
test.readout: DC50

Sample answers from the record:
* COc1cc(N2CCC(CN3CCN4c5cc6c(cc5OC[C@H]4C3)C(=O)N([C@@H]3CCC(=O)NC3=O)C6)CC2)ccc1[C@@H]1c2[nH]c3ccccc3c2C[C@@H](C)N1CC(F)F | < 1 nM
* COc1cc(N2CCC(CN3CCC4(CC3)COc3cc5c(cc34)CN(C3CCC(=O)NC3=O)C5=O)CC2)ccc1[C@@H]1c2[nH]c3ccccc3c2C[C@@H](C)N1CC(F)F (stereo partly shown) | 1 to 10 nM
* C[C@H]1Cc2c([nH]c3ccccc23)[C@H](c2cnc(N3CCC4(CC3)C[C@@H](CN3CCC(c5ccc(N[C@@H]6CCC(=O)NC6=O)cc5)CC3)CO4)nc2)N1CC(F)F | < 1 nM
* COc1cc(N2CCC3(CCN(C(=O)CN4Cc5cc6c(cc5C4)C(=O)N(C4CCC(=O)NC4=O)C6=O)CC3)CC2)ccc1[C@@H]1c2[nH]c3ccccc3c2C[C@@H](C)N1CC(F)F (stereo partly shown) | < 1 nM
* COc1cc(N2CCC(CN3CCN4c5cc6c(cc5OC[C@@H]4C3)C(=O)N([C@H]3CCC(=O)NC3=O)C6)CC2)ccc1[C@@H]1c2[nH]c3ccccc3c2C[C@@H](C)N1CC(F)F [Compound A29] | < 1 nM

Which measured DC50 value corresponds to COc1cc(N2CCC(CN3CCN4c5ccc6c(c5OC[C@H]4C3)CN([C@@H]3CCC(=O)NC3=O)C6=O)CC2)ccc1[C@@H]1c2[nH]c3ccccc3c2C[C@@H](C)N1CC(F)F ?
< 1 nM

Which measured DC50 value corresponds to C[C@H]1Cc2c([nH]c3ccccc23)[C@H](c2cnc(N3CCC4(CC3)C[C@H](CN3CCN5c6cc7c(cc6OC[C@H]5C3)C(=O)N([C@@H]3CCC(=O)NC3=O)C7)CO4)nc2)N1CC(F)F ?
< 1 nM

Which measured DC50 value corresponds to COc1cc(N2CCC(CN3CCN(c4ccc(C(=O)N[C@@H]5CCC(=O)NC5=O)nc4)CC3)CC2)ccc1[C@@H]1c2[nH]c3ccccc3c2C[C@@H](C)N1CC(F)F [Compound A57, formate] ?
< 1 nM

Which measured DC50 value corresponds to C[C@@H]1Cc2c([nH]c3ccccc23)[C@@H](c2ccc(N3CCC(CN4CCN5c6ccc7c(c6OC[C@@H]5C4)CN([C@H]4CCC(=O)NC4=O)C7=O)CC3)nc2)N1CC(F)F ?
1 to 10 nM

Which measured DC50 value corresponds to COc1cc(N2CCC(CN3CCN(c4cnc(C(=O)NC5CCC(=O)NC5=O)cc4OC)CC3)CC2)ccc1[C@@H]1c2[nH]c3ccccc3c2C[C@@H](C)N1CC(F)F (stereo partly shown) ?
< 1 nM
